polymerase ribozyme fitness (log ratio) for assorted variants
B1: TPR 5TU (parent)
chain: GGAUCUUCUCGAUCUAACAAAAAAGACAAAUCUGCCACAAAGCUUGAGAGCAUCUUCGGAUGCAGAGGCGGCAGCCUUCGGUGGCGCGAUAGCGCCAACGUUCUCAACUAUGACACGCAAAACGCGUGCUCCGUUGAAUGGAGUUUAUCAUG

# Variants of: B1
# Test method notes: polymerase ribozyme fitness, log enrichment relative to wild type (log ratio); higher = more active; in vitro selection for triplet polymerase activity
This sample holds only a part of the variants without activity.

Answered examples (5):
> print(dat)
                             variant.key  reported.result
1      A60G G88C A106U U134A G140C G143C           ≤ -4.2
2                        A47G U61G A142G            -2.82
3  A28U G88A G94A C99G C103G U104A A107G           ≤ -4.2
4             G34C A52G G84A U109A C125U           ≤ -4.2
5                         A52G C57A A73U           -0.666

Please look up its polymerase ribozyme fitness (log ratio): C69A G70C A106G C131U A137C
≤ -4.2

Field entry: A16G A91U C105G A115G
≤ -4.2

Repeat for the following variant: U33C C36U U56A G84U U90C A110C G143C
≤ -4.2

Moving on to the next variant: C27G G58C G86A C105A U144A
≤ -4.2

Subsequent entry: A12G U15G C69A C75U A106G A120G
-2.52

Now the variant U44A G84A C85G C95G C99U
-3.94
